- Test system: A549
- Experiment summary: Cytotoxicity against human A549 cells assessed as reduction in cell viability after 48 hrs by MTT assay
- Type: functional, cell-based
- Test conditions: A549, 48 h
IC50 strictly less than 10 µM = True. Otherwise False.

{"Molecule": "C[S@@](=O)CCCCN=C=S", "Category label": "False"}
{"Molecule": "CC[S@@+]([O-])CCCCN=C=S (racemic)", "Category label": "False"}
{"Molecule": "C[S@+]([O-])CCCCCN=C=S", "Category label": "False"}
{"Molecule": "C[S@@+]([O-])CCCCCN=C=S", "Category label": "True"}

Okay, next one:
(Q) Is IC50 of CC(O)C(=O)O (stereo unspecified) strictly below 10 µM?
(A) False

* * *

- Test system: MRC5
- Experiment summary: Cytotoxicity against human MRC5 cells assessed as reduction in cell viability after 48 hrs by MTT assay
- Type: cell-based
- Test conditions: MRC5, 48 h
I'd be grateful if you could share measured IC50 for these entries.
Answers are plain numbers, in µM.

{"Compound": "C[S@@+]([O-])CCCCCN=C=S", "IC50 (µM)": 18.5}
{"Compound": "CCCC[S@@+]([O-])CCCCN=C=S", "IC50 (µM)": 17.4}
{"Compound": "CC(O)C(=O)O (stereo unspecified) [LACTIC ACID]", "IC50 (µM)": 23.9}

Hi there! I need IC50 for each item below, if you can.
1. CC[S@@+]([O-])CCCCN=C=S (racemic)
2. C[S@@](=O)CCCCN=C=S [SULFORAPHANE]

(A)
1. 40.8
2. 46.6

(Q) Given C[S@+]([O-])CCCCCN=C=S , respond with its IC50.
(A) 20.2
